Listing of recorded Ki by entry.
# tgt: HCV NS3-NS4A protease (tNS3 with KK4A) (Hepatitis C virus genotype 1a)
# Sequence (P27958 1027-1208): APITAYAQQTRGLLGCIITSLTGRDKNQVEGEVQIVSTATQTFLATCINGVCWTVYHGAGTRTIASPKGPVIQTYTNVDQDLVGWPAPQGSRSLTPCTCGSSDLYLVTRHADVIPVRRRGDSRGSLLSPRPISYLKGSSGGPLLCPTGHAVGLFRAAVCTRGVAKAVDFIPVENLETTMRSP
# experiment_notes: HCV Ki assay (HPLC microbore separation of 5AB substrate and products)
# Type: biochemical
# Experimental: HPLC Microbore Method for Separation of 5AB Substrate and Products • Substrate: • NH2-Glu-Asp-Val-Val-(alpha)Abu-Cys-Ser-Met-Ser-Tyr-COOH A stock solution of 20 mM 5AB (or concentration of your choice) was made in DMSO w/ 0.2M DTT. This was stored in aliquots at −20 C. Buffer: 50 mM HEPES, pH 7.8; 20% glycerol; 100 mM NaCl Total assay volume was 100 μL The buffer, KK4A, DTT, and tNS3 were combined; distributed 78 μL each into wells of 96 well plate. This was incubated at 30 C for ˜5–10 min. […]

Entry CCC[C@H](NC(=O)[C@@H]1C[C@@H]2CCCC[C@@H]2N1C(=O)[C@@H](NC(=O)[C@@H](NC(=O)c1cc2cc(F)ccc2[nH]1)C1CCCCC1)C(C)(C)C)C(=O)C(=O)NC1CC1 [Compound 18a] , Ki reported as < 0.5 µM

Entry CCC[C@H](NC(=O)[C@@H]1C[C@@H]2CCCC[C@@H]2N1C(=O)[C@@H](NC(=O)[C@@H](NC(=O)c1[nH]c(C)c(C)c1C(C)=O)C(C)CC)C(C)(C)C)C(=O)C(=O)NC1CC1 (stereo partly drawn) [Compound 59a] , Ki reported as < 0.5 µM

Entry CCCC(NC(=O)[C@@H]1C[C@@H]2CCCC[C@@H]2N1C(=O)[C@@H](NC(=O)[C@@H](NC(=O)c1cnccn1)C1CCCCC1)C(C)(C)C)C(=O)C(=O)NC1CC1 (stereo partly drawn) , Ki reported as < 0.5 µM
